Tested on: HEK-293T
experimental details: Multiplex assay against HEK293T
Type: toxicity, cell-based
test parameters: human, 24 h, 1 µM, compound concentration 1 uM, replicate 1
Flag rule - Total Cell Count less than 600 flags satisfied; the remaining entries get not satisfied.

| molecule | group |
| --- | --- |
| COc1cc2nc(N3CCN(C(=O)c4ccco4)CC3)nc(N)c2cc1OC.Cl [PRAZOSIN HYDROCHLORIDE] | not satisfied |
| CSc1nc(NC2CCCC2)c([N+](=O)[O-])c(NC2CCCC2)n1 [GS-39783] | satisfied |
| O=C(Nc1cc(-c2ccccc2)nn1-c1ccccc1F)c1ccc([N+](=O)[O-])cc1 | satisfied |
| C[C@H](NC(=O)CNC(=O)c1cccc(Cl)c1)c1ccccc1 | not satisfied |
| COc1cc2nc(N3CCN(C(=O)COc4c(OC)cccc4C(C)C)CC3)nc(N)c2cc1OC.Cl.Cl | satisfied |
| O=c1nc2[nH]c3ccccc3nc-2c(=O)[nH]1 [ALLOXAZINE] | satisfied |
| CCCCCCNC(=O)Nc1ccc(S(=O)(=O)Nc2ccc(CCNC[C@H](O)COc3ccc(O)cc3)cc2)cc1 [L-755507] | not satisfied |
| CN1CCN2c3ccccc3Cc3ccccc3C2C1.Cl (stereo unspecified) [MIANSERIN HYDROCHLORIDE] | satisfied |
| Cc1cc(NC(=O)NCCN2CCC(O)(Cc3ccccc3)CC2)c2ccccc2n1 [PALOSURAN] | satisfied |
| CC(C)C[C@H](CO)Nc1nc(S[C@@H](C)c2ccccc2)nc2nc(N)sc12 [AZD-8797] | satisfied |
| OCCCNc1cc(-c2ccnc(Nc3cccc(Cl)c3)n2)ccn1 | satisfied |
| Cc1cc(-c2ccc3c(c2)CC[C@H]3N2CC3(CCN(C(=O)Cc4cn5cc(C)sc5n4)CC3)C2)ncn1 [PF-5190457] | satisfied |
| C[C@@H]1CC(=O)Nc2cccc(-c3ccc4c(c3)c(-c3cnn(C)c3)nn4C)c2N1 | satisfied |
| CCn1c(-c2nc3cc(C(=O)N4CCCC(N)C4)ccc3n2C)cc2ccccc21.Cl (stereo unspecified) | satisfied |
| Cl.Cl.OCCOCCN1CCN(C(c2ccccc2)c2ccc(Cl)cc2)CC1 (stereo unspecified) [HYDROXYZINE HYDROCHLORIDE] | satisfied |
| O=C(NCCNCC(O)COc1ccc(O)cc1)N1CCOCC1.O=C(NCCNCC(O)COc1ccc(O)cc1)N1CCOCC1.O=C(O)/C=C/C(=O)O (stereo unspecified) [XAMOTEROL FUMARATE] | satisfied |
| CN1CCN(c2ccc(Nc3c4ccccc4nc4ccccc34)cc2)CC1.Cl.Cl.O | satisfied |
| Nc1nc(-c2ccco2)c2cnn(Cc3ccccc3F)c2n1 | satisfied |
| Nc1nc(CC(=O)Nc2ccc(CCNC[C@H](O)c3ccccc3)cc2)cs1 [MIRABEGRON] | not satisfied |
| S=C(NCCCc1c[nH]cn1)NCCCN(Cc1ccc(Cl)c(Cl)c1)c1ccc(Br)cn1 | satisfied |
| COc1cc(C(=O)N2CC[C@@H](O)[C@@H](N)C2)cc2nc(-c3cc4ccccc4n3CC3CC3)n(C)c12.Cl | satisfied |
| Cc1ccc(OCC(O)C(C)NC(C)C)c2c1CCC2.Cl (stereo unspecified) | satisfied |
| COCCn1c(C)c(C)s/c1=N\C(=O)C1C(C)(C)C1(C)C | satisfied |
| Cc1cc(=O)n(C)c2cc(N3C(=O)CC[C@H](NS(=O)(=O)CC(C)C)[C@H]3c3ccc(Cl)cc3)ccc12 | not satisfied |
| CN1CCC(C(=O)c2cccc(NC(=O)c3c(F)cc(F)cc3F)n2)CC1 | satisfied |
| Cc1c(Cc2ccc3ccccc3n2)c2cc(F)ccc2n1CC(=O)O [TIMAPIPRANT] | satisfied |
| CC(C)(C)c1ccc(CSc2cnn(C(C)(C)C)c(=O)c2Cl)cc1 [PYRIDABEN] | satisfied |
| COC(c1ccccc1)(c1ccccc1)[C@H](Oc1nc(C)cc(C)n1)C(=O)O [AMBRISENTAN] | satisfied |
| O=c1ccc2ccc(OCCCCN3CCN(c4cccc5sccc45)CC3)cc2[nH]1 [BREXPIPRAZOLE] | satisfied |

Source of measurements: ChEMBL document CHEMBL5058577
